Biological target: human FPR1 (Homo sapiens (Human))
Sequence (P21462 whole entry): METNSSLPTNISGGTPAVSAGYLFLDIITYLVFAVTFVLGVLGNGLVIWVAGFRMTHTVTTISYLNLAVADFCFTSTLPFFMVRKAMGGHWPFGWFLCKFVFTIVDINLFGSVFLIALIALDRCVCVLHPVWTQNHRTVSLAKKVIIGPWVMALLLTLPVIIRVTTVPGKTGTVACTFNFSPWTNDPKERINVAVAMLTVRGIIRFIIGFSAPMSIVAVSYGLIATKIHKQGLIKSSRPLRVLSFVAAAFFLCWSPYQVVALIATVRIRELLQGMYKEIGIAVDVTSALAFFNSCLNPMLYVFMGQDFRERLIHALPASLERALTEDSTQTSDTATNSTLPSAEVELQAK
Assay: FPR1 cyclic adenosine monophosphate (cAMP) assay
Conditions: CHO cells overexpressing human FPR1; forskolin 10 µM; inhibition of cAMP production; read-out: hFPR1 cAMP EC50
measurementKind: EC50 (nM)

I: CCn1ccc(N2C[C@@H](c3c(F)cc(OC)cc3F)[C@H](NC(=O)c3ccc(OC(F)F)cc3)C2=O)n1 [Example 648]
II: COc1cc(F)c([C@@H]2CN(c3cccn(C4COC4)c3=O)C(=O)[C@H]2NC(=O)c2ccc(OC(F)F)cc2)c(F)c1 [Example 304]
When the recorded EC50 values are compared, which is smaller: that of I or that of II ? Identify your pick by its label.
I
(I: 4.1 nM, II: 90 nM)
